Data credit: patent US5319085A

Test system: 5HT3 receptor
Measurement protocol: 5HT3 receptor binding test, [3H] quipazine, NG108-15 cell membrane fraction
Set-up: species or system rat
Experimental setup: 10^-7 M; inhibition of 2 nM [3H] quipazine binding
Readout label: Inhibition Rate (%) (Concentration 10^-7 M)
Express it in %; write the number only.

Recorded Inhibition Rate (%) (Concentration 10^-7 M), per entry:
                                   compound  quantitative_readout
0  CN1[C@@H]2CC[C@H]1C[C@@H](OC(=O)c1cnc3ccccc3c1O)C2                   107
1  CC(C)COc1cc(C(=O)O[C@H]2C[C@H]3CC[C@@H](C2)N3C)c2ccccc2n1                   108
2  COc1cc(C(=O)O[C@H]2C[C@H]3CC[C@@H](C2)N3C)c2ccccc2n1                   104
3  CCCOc1cc(C(=O)O[C@H]2C[C@H]3CC[C@@H](C2)N3C)c2ccccc2n1                   104
4  CCOc1cc(C(=O)O[C@H]2C[C@H]3CC[C@@H](C2)N3C)c2ccccc2n1 [Compound 10Sa]                    99

Query string: Which measured Inhibition Rate (%) (Concentration 10^-7 M) value corresponds to CCCCOc1cc(C(=O)O[C@H]2C[C@H]3CC[C@@H](C2)N3C)c2ccccc2n1 ?
Result string: 104

Query string: Next compound up: CCCCCOc1cc(C(=O)O[C@H]2C[C@H]3CC[C@@H](C2)N3C)c2ccccc2n1
Result string: 97

Query string: Next compound up: CCCCCCOc1cc(C(=O)O[C@H]2C[C@H]3CC[C@@H](C2)N3C)c2ccccc2n1
Result string: 97
